# target or system: T1, SF3A1-UBL K717A (human, UniProt Q15459 704-793, K717A)
# T1 sequence: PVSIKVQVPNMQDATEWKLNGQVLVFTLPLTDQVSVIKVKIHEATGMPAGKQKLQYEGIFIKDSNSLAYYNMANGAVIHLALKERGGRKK
# experiment notes: SPR
parameter measured: Kd

INSERT INTO results (binder, parameter_measured, result) VALUES
  ('GGGGACUGCGUUCGCGCUUUCCCC (structured_RNA) [Biotin-U1-SL4-WT]', 'Kd', '1590 nM');
